System: 24 hours-starved rats
assay.details: Glucose and β-hydroxybutyrate in serum of fasted rats treated with CPT inhibitors
Assay type: in vivo, Fischer rats
experimental.conditions: one hour after intraperitoneal treatment, ST1326 14.5 mg/2 ml/kg, others equivalent dose
Procedure: Normally fed Fischer rats were starved for 24 hours and subsequently treated with the test compounds. One hour after the treatment, the animals were sacrificed and serum concentrations of glucose and β-hydroxybutyrate were determined. For the compound ST1326 were used doses of 14.5 mg/2 ml/kg, for other test compounds, the doses are equivalent to ST1326 one.
measured.parameter: Glu (glucose) serum concentration, Mean
Please reply with the value in numeric form only.

Measured Glu (glucose) serum concentration, Mean, CCCCCCCCOC(=O)NC(CC(=O)O)C[N+](C)(C)C.[Cl-] (stereo not drawn) : 88.2

Measured Glu (glucose) serum concentration, Mean, CCCCCCCCCCCCCCNC(=O)N[C@H](CC(=O)[O-])C[N+](C)(C)C : 84.2

Measured Glu (glucose) serum concentration, Mean, CCCCCCCNC(=O)N[C@H](CC(=O)[O-])C[N+](C)(C)C : 79.5

Measured Glu (glucose) serum concentration, Mean, CCCCCCCCCCCNC(=O)N[C@H](CC(=O)[O-])C[N+](C)(C)C : 84.9

Measured Glu (glucose) serum concentration, Mean, CCCCCCCCCCCCCCOP(=O)([O-])O[C@H](CC(=O)O)C[N+](C)(C)C [SDZ-CPI-975, reference compound] : 87.6

Measured Glu (glucose) serum concentration, Mean, CCCCCCCCCNC(=O)NC(CC(=O)[O-])C[N+](C)(C)C (stereo not drawn) : 76.9
